molecular target: T1, rat serum albumin (rat, UniProt P02770 25-608); assay: SPR Biacore2000, albumin immobilized on CM-5, polypeptide as analyte, relative KD
T1 construct: Bought; also called RSA
T1 sequence (P02770 25-608 limits assumed): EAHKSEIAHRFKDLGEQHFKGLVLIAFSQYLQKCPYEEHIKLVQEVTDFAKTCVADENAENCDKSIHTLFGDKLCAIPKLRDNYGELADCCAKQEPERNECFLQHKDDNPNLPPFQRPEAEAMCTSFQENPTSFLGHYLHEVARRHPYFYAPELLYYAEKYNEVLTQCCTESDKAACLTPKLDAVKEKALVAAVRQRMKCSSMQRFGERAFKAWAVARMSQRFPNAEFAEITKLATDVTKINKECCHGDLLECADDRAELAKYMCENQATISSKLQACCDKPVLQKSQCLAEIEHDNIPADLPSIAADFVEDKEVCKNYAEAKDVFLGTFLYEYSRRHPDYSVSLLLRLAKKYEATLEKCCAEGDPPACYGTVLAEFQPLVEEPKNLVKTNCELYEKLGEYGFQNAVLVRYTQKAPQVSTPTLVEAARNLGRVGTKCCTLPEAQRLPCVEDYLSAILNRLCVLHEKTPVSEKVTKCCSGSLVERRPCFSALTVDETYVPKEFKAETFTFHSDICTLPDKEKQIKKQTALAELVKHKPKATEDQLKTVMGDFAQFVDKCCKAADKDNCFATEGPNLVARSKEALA
recorded_endpoint: pKd
Notebook: values listed as pKd are -log10 of the concentration (mol/L).

| binder | pKd |
| --- | --- |
| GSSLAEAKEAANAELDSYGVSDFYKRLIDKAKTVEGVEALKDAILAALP (designed binder, single Arg at position 23 of the 46-mer; GSS extension at the N-terminus; also called ABD variant; control) [PEP07843] | 11.09 |

API: the following record is the query input.
Request the reported pKd associated with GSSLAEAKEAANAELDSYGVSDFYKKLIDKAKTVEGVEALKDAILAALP (designed binder, Inventive variant; 46 residues with an N-terminal GSS extension; R23K against PEP07843 (position counted on the 46-mer without GSS); Expressed in E. coli; also called ABD variant; R23K variant of PEP07843) [PEP12380]
11.03

The reported numbers originate from patent US20150225464A1.
